molecular target: HCV Core 134-171-TT peptide (ALRZ-9 peptide) (HCV-1); test: SPR, captured mAb;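 also: Anti-HCV Core mAbs from hybridoma supernatants held on a rabbit anti-mouse IgG CM5 surface, peptide flowed over 3 min then 4 min dissociation, duplicate concentrations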
koff: recorded values

BINDER	koff / s⁻¹
HCV 208A-352 (antibody, V domains shown) VH: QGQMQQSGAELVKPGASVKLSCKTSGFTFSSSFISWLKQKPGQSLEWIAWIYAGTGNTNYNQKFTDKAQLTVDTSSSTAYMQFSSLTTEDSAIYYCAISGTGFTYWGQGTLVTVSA VL: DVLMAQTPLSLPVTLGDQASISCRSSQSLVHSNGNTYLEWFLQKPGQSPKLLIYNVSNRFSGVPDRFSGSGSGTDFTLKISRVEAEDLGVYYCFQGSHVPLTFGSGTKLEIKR	5.4e-05
HCV 208A-557 (antibody, V domains shown) VH: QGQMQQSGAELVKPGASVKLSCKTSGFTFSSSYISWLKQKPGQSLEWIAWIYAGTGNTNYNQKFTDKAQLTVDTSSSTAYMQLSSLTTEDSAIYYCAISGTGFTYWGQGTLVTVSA VL: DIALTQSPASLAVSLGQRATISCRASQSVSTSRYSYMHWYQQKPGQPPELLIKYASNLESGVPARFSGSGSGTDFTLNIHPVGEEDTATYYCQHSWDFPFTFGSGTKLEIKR	0.00021
HCV 208B-672 (antibody, V domains shown) VH: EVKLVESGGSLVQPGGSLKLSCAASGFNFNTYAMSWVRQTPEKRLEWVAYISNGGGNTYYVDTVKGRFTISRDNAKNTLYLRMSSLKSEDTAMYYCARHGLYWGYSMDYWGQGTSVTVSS VL: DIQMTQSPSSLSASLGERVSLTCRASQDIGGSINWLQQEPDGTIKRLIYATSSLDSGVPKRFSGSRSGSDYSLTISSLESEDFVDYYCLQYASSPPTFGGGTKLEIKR	0.00034

All figures here come from patent US9371374.
